# Assay System: B1R receptor of rats (rB1R) (Rattus norvegicus, UniProt P97583)
# Construct: host or cells: CHO K1 cells
# Sequence (P97583 1-337): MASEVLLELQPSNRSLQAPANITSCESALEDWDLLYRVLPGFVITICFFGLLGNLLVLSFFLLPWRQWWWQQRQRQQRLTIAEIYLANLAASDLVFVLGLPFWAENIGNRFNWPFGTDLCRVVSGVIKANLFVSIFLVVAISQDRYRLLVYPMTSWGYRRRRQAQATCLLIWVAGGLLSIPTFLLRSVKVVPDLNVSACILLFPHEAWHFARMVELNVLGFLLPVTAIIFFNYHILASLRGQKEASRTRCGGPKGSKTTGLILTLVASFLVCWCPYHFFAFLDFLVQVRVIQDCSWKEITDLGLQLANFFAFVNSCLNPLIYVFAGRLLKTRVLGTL
# Experiment: FLIPR Ca2+ assay (Fluo-4) on CHO K1 cells stably transfected with the B1R gene of rats
# Format: cell-based
# Experimental Parameters: CHO-K1; test substance 10 μM; agonist Des-Arg9-bradykinin 100 nM; % inhibition compared to the maximum achievable inhibition
Recorded Endpoint: inhibition at 10 µM (%)

Molecule	Recorded Endpoint	Readout Value
Cc1cc(C)c(S(=O)(=O)N2CCCCC2COCC(=O)N2CCn3cccc3C2C(C)(C)C)c(C)c1 (centres unmarked)	inhibition at 10 µM	100
CN1CCN(CCCc2ccc3n2CCN(C(=O)COCC2CCc4ccccc4N2S(=O)(=O)c2ccc(Cl)c(Cl)c2)C3)CC1 (centres unmarked)	inhibition at 10 µM	92
Cc1cc(C)c(S(=O)(=O)N2CCCCC2COCC(=O)N2CCn3cccc3C2c2cccc(C(F)(F)F)c2)c(C)c1 (centres unmarked)	inhibition at 10 µM	79
Cc1cc(C)c(S(=O)(=O)N2CCCCC2COCC(=O)N2CCn3c(CN(C)C)ccc3C2c2cccs2)c(C)c1 (centres unmarked)	inhibition at 10 µM	102
CCCC1c2cccn2CCN1C(=O)COCC1CCCCN1S(=O)(=O)c1c(C)cc(OC)cc1C (centres unmarked)	inhibition at 10 µM	102
COc1cc(C)c(S(=O)(=O)N2CCCCC2COCC(=O)N2CCn3c(CN4CCN(C)CC4)ccc3C2)c(C)c1 (centres unmarked)	inhibition at 10 µM	101
CCCCC1c2ccc(CN(C)C)n2CCN1C(=O)COCC1CCCCN1S(=O)(=O)c1c(C)cc(C)cc1C (centres unmarked)	inhibition at 10 µM	100
COc1cc(C)c(S(=O)(=O)N2CCCCC2COCC(=O)N2CCn3c(Cc4ccncc4)ccc3C2)c(C)c1 (centres unmarked)	inhibition at 10 µM	100
